For each entry below, report its Euclidean distance value.
Test system: OVCAR4
Assay: Euclidean distance of Cell Painting phenotypic profile (signed KS, 77 features) to DMSO centroid (dimensionless distance); 5 or 10 uM (library dependent); higher = stronger phenotypic change vs DMSO (phenoactivity)
Conditions: 48 h
Where a name gives a salt, the structure may show the parent alone.
Reply: number alone, nothing else.

Data request: I have this compound here, O=C(O)CCCCC(CCSCc1ccccc1)SCc1ccccc1 (centres undefined) , and I need its recorded Euclidean distance.
Data returned: 0.821

Data request: I have this compound here, CCCNC(C)C(=O)Nc1c(C)csc1C(=O)OC (centres undefined) [Articaine HCl] , and I need its recorded Euclidean distance.
Data returned: 1.06

Data request: I have this compound here, Cc1ccc(Nc2c(F)cccc2Cl)c(CC(=O)O)c1 , and I need its recorded Euclidean distance.
Data returned: 1.36

Data request: I have this compound here, Clc1ccc2c(N3CCN(CCCN4CCN(c5ccnc6cc(Cl)ccc56)CC4)CC3)ccnc2c1 [Piperaquine phosphate] , and I need its recorded Euclidean distance.
Data returned: 1.25

Data request: I have this compound here, Fc1ccc([C@@H]2CCNC[C@H]2COc2ccc3c(c2)OCO3)cc1 [Paroxetine mesylate] , and I need its recorded Euclidean distance.
Data returned: 1.52

Data request: I have this compound here, C[C@]12CC[C@@H]3c4ccc(OC(=O)c5ccccc5)cc4CC[C@H]3[C@@H]1CC[C@@H]2O [Estradiol Benzoate] , and I need its recorded Euclidean distance.
Data returned: 1.01

Data request: I have this compound here, Cc1ccc2c(Cl)cc(Cl)c(O)c2n1 , and I need its recorded Euclidean distance.
Data returned: 2.94

Data request: I have this compound here, c1cn2cc(-c3ccc4cn[nH]c4c3)nc(Nc3ccc(N4CCOCC4)cc3)c2n1 , and I need its recorded Euclidean distance.
Data returned: 1.42

Data request: I have this compound here, Cc1ccc([C@@H]2O[C@H](CO)[C@@H](O)[C@H](O)[C@H]2O)cc1Cc1ccc(-c2ccc(F)cc2)s1 , and I need its recorded Euclidean distance.
Data returned: 1.77

---

Test system: DU145
Assay: Euclidean distance of Cell Painting phenotypic profile (signed KS, 77 features) to DMSO centroid (dimensionless distance); 5 or 10 uM (library dependent); higher = stronger phenotypic change vs DMSO (phenoactivity)
Conditions: 48 h
Structures can show the parent of a compound that is named as a salt.
readout type: Euclidean distance
Reply: number alone, nothing else.

Data request: Look up Euclidean distance with DU145 for this compound: COc1cc2c(N3CCN(C(=O)Nc4ccc(OC(C)C)cc4)CC3)ncnc2cc1OCCCN1CCCCC1
Data returned: 1.35

Data request: Look up Euclidean distance with DU145 for this compound: COc1cc(NC(=O)c2ccc(-c3ccc(Cl)cc3)o2)cc(OC)c1
Data returned: 1.23

Data request: Look up Euclidean distance with DU145 for this compound: CC(C)c1ccc2oc3nc(N)c(C(=O)O)cc3c(=O)c2c1
Data returned: 0.886

Data request: Look up Euclidean distance with DU145 for this compound: COc1ccc2cc(C(=O)O)ccc2c1
Data returned: 0.683

Data request: Look up Euclidean distance with DU145 for this compound: O=C(Nc1cc(C(F)(F)F)cc(C(F)(F)F)c1)c1cc(Cl)ccc1O
Data returned: 1.02

Data request: Look up Euclidean distance with DU145 for this compound: O=C(Nc1ccccc1-c1cn2c(CN3CCNCC3)csc2n1)c1cnc2ccccc2n1
Data returned: 5.63

Data request: Look up Euclidean distance with DU145 for this compound: Nc1c(CC(=O)O)cccc1C(=O)c1ccccc1 [Amfenac Sodium Monohydrate]
Data returned: 0.909

Data request: Look up Euclidean distance with DU145 for this compound: CN(CCOc1ccc(CC2SC(=O)NC2=O)cc1)c1ccccn1 (stereo not given) [Rosiglitazone HCl]
Data returned: 1.31

Data request: Look up Euclidean distance with DU145 for this compound: Clc1ccc(Nc2nnc(Cc3ccncc3)c3ccccc23)cc1 [Vatalanib (PTK787) 2HCl]
Data returned: 1.47

Data request: Look up Euclidean distance with DU145 for this compound: COC(=O)N/N=C/c1c[n+]([O-])c2ccccc2[n+]1[O-]
Data returned: 0.837

Data request: Look up Euclidean distance with DU145 for this compound: C[C@]12CCCN1CC1=NNC(=O)c3cc(F)cc4[nH]c2c1c34
Data returned: 1.44

Data request: Look up Euclidean distance with DU145 for this compound: Cc1c(N)c(=O)n(-c2ccccc2)n1C [4-Aminoantipyrine]
Data returned: 1.5

Data request: Look up Euclidean distance with DU145 for this compound: CCOC(=O)O[C@]1(C(=O)OCCl)CC[C@H]2[C@@H]3CCC4=CC(=O)C=C[C@]4(C)[C@H]3[C@@H](O)C[C@@]21C [Loteprednol etabonate]
Data returned: 1.71

Data request: Look up Euclidean distance with DU145 for this compound: Cc1[nH]c(/C=C2\C(=O)Nc3ccc(S(=O)(=O)Cc4c(Cl)cccc4Cl)cc32)c(C)c1C(=O)N1CCC[C@@H]1CN1CCCC1
Data returned: 1.16

Data request: Look up Euclidean distance with DU145 for this compound: CCN(CC)Cc1cc(Nc2ccnc3cc(Cl)ccc23)ccc1O [Amodiaquine dihydrochloride dihydrate]
Data returned: 1.79

Data request: Look up Euclidean distance with DU145 for this compound: NCC(=O)CCC(=O)O [5-Aminolevulinic acid HCl]
Data returned: 1.81

Data request: Look up Euclidean distance with DU145 for this compound: CC(C)(S)[C@@H](N)C(=O)O
Data returned: 0.756

Data request: Look up Euclidean distance with DU145 for this compound: CCOc1ccn(-c2ccc(F)cc2)c(=O)c1C(=O)Nc1ccc(Oc2ccnc(N)c2Cl)c(F)c1
Data returned: 1.66

Data request: Look up Euclidean distance with DU145 for this compound: Cc1ccc(Cl)cc1N(CC(=O)Nc1c(F)cccc1F)S(C)(=O)=O
Data returned: 0.886

Data request: Look up Euclidean distance with DU145 for this compound: CCOc1nc2cccc(C(=O)O)c2n1Cc1ccc(-c2ccccc2-c2nnn[nH]2)cc1
Data returned: 1.69

Data request: Look up Euclidean distance with DU145 for this compound: CO[C@@]1(NC(=O)Cc2cccs2)C(=O)N2C(C(=O)O)=C(COC(N)=O)CS[C@@H]21 [Cefoxitin]
Data returned: 0.617

Data request: Look up Euclidean distance with DU145 for this compound: N=C(NCCCCCCNC(=N)NC(=N)Nc1ccc(Cl)cc1)NC(=N)Nc1ccc(Cl)cc1
Data returned: 1.97

Data request: Look up Euclidean distance with DU145 for this compound: O=C1Cc2cc(CCN3CCN(c4nsc5ccccc45)CC3)c(Cl)cc2N1 [Ziprasidone HCl]
Data returned: 1.15

Data request: Look up Euclidean distance with DU145 for this compound: O=C(/C=C/c1ccc(O)c(O)c1)O[C@H](Cc1ccc(O)c(O)c1)C(=O)O
Data returned: 0.818

Data request: Look up Euclidean distance with DU145 for this compound: CN(C)CCOc1ccc(-c2nc(-c3ccncc3)c(-c3ccc4c(c3)CC/C4=N\O)[nH]2)cc1
Data returned: 2.08

Data request: Look up Euclidean distance with DU145 for this compound: CNS(=O)(=O)CCc1ccc2[nH]cc(C3CCN(C)CC3)c2c1
Data returned: 1.01

Data request: Look up Euclidean distance with DU145 for this compound: O=C(CCCCCCNC(=O)c1cnc(N(c2ccccc2)c2ccccc2)nc1)NO
Data returned: 1.29

Data request: Look up Euclidean distance with DU145 for this compound: CN1CCN(S(=O)(=O)c2ccc(-c3cnc(N)c(C(=O)Nc4cccnc4)n3)cc2)CC1
Data returned: 1.43

Data request: Look up Euclidean distance with DU145 for this compound: C#C[C@]1(O)CC[C@H]2[C@@H]3CCc4cc(O)ccc4[C@H]3CC[C@@]21C
Data returned: 1.83

Data request: Look up Euclidean distance with DU145 for this compound: Cc1cn([C@H]2C=C[C@@H](CO)O2)c(=O)[nH]c1=O
Data returned: 0.564

Data request: Look up Euclidean distance with DU145 for this compound: NCCCC[C@@H]1NC(=O)[C@@H](Cc2ccccc2)NC(=O)[C@H](CC(=O)O)NC(=O)CNC(=O)[C@H](CCCN=C(N)N)NC1=O [Cyclo (-RGDfK)]
Data returned: 2.08

Data request: Look up Euclidean distance with DU145 for this compound: CC/C=C\C/C=C\C/C=C\C/C=C\C/C=C\C/C=C\CCC(=O)O
Data returned: 0.837

Data request: Look up Euclidean distance with DU145 for this compound: C[C@@H]1CC(=O)NN=C1c1ccc(NN=C(C#N)C#N)cc1
Data returned: 1.3

Data request: Look up Euclidean distance with DU145 for this compound: CC(c1cc2ccccc2s1)N(O)C(N)=O (stereo not given)
Data returned: 0.621

Data request: Look up Euclidean distance with DU145 for this compound: CC(C)(C)C(=O)C(Oc1ccc(Cl)cc1)n1ccnc1 (stereo not given)
Data returned: 0.641
